System Under Test: T. cruzi lipoamide dehydrogenase (TcLipDH) (Trypanosoma cruzi)
Sequence (P90597 whole entry): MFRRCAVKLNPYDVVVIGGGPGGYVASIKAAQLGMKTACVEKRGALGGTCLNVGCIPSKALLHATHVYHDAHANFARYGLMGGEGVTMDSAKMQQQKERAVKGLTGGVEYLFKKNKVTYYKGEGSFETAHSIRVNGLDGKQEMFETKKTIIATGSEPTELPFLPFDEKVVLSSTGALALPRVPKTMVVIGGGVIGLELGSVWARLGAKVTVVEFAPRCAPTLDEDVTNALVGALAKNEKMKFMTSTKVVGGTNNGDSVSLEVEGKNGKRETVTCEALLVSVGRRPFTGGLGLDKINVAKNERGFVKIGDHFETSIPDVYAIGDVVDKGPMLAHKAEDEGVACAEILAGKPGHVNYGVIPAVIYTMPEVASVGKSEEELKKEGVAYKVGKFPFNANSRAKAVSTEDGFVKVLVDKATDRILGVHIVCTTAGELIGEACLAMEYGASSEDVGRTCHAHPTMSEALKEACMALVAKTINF
Experiment: Recombinant enzyme kinetics
Type: biochemical
Reported Metric: pKi
Would you please state pKi, meaning minus log10 of the concentration in mol/L, as a bare number?

Request: Using known records, supply pKi for O=C1C(c2ccccc2)=C(c2ccccc2)C(=O)c2ccccc21
Result: 4.54
